Biological target: Cannabinoid receptor 2 (Homo sapiens, UniProt P34972)
Sequence (P34972 whole entry): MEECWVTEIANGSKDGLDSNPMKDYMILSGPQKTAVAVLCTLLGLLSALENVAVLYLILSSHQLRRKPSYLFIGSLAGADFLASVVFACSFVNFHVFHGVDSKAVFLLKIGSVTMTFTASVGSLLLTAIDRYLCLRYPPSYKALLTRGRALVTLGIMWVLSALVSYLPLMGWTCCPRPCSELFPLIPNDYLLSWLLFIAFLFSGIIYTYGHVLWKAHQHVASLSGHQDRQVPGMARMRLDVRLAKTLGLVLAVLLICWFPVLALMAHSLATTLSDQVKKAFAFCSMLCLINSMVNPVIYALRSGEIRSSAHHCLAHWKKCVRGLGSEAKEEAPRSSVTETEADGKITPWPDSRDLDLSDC
Test: Agonist activity at human CB2 receptor by beta-arrestin recruitment assay
Measured EC50, listed per entry for reference.
Quick note: give the figure in nM, leave out the unit.

• O=C(N1CCc2cc(F)ccc21)C12CC3CC(CC(C3)C1)C2 = 200
• Cc1cccc2c1N(C(=O)C13CC4CC(CC(C4)C1)C3)CC2 = 1600
• O=C(N1Cc2ccccc2C1)C12CC3CC(CC(C3)C1)C2 = 600
• O=C(N1CCc2ccccc21)C12CC3CC(CC1C3)C2 = 900
• CC1(C)CN(C(=O)C23CC4CC(CC(C4)C2)C3)c2ccccc21 = 900

Please look up its EC50: O=C(N1CCc2ccccc21)C12CC3CC(CC(O)(C3)C1)C2
2600

Please look up its EC50: O=C(NC(=S)N1CCCCC1)C12CC3CC(CC(C3)C1)C2
500

Please look up its EC50: COCCOC1CCN(C(=O)C23CC4CC(CC(C4)C2)C3)c2ccccc21 (stereo unspecified)
900

Please look up its EC50: Cc1cccc2c1CCN2C(=O)C12CC3CC(CC(C3)C1)C2
290

Please look up its EC50: O=C(C1C2CC3CC(C2)CC1C3)N1CCc2ccccc21 (stereo unspecified)
160

###

Measured pKi, listed per entry for reference.
Target: Cannabinoid receptor 2 (Homo sapiens)
Assay: Binding affinity to human CB2 receptor
In plain terms, pKi is the concentration in mol/L turned into minus its base-10 logarithm.

- CN1CCN(C(=O)C23CC4CC(CC(C4)C2)C3)c2ccccc21: 6.30

Please look up its pKi: O=C(N1CCCc2ccccc21)C12CC3CC(CC(C3)C1)C2
6.10

Please look up its pKi: O=C(N1CCc2ccc(C(F)(F)F)cc21)C12CC3CC(CC(C3)C1)C2
5.60

Please look up its pKi: Cc1cccc2c1N(C(=O)C13CC4CC(CC(C4)C1)C3)CC2
6.22

Please look up its pKi: Cc1cccc2c1CCN2C(=O)C12CC3CC(CC(C3)C1)C2
6.77

###

The reader will find pKi measurements below, all made with Cannabinoid receptor 2 (Mus musculus, UniProt P47936).
Sequence (P47936 whole entry): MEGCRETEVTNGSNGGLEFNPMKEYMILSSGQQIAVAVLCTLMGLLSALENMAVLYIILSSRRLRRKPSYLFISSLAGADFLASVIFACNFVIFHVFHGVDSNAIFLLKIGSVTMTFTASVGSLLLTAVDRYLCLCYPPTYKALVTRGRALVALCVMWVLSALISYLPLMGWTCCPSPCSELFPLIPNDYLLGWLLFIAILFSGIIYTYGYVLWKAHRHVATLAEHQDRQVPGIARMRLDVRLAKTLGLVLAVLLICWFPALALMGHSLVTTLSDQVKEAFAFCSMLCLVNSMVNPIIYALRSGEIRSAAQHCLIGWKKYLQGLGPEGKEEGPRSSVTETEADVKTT
In plain terms, pKi is the concentration in mol/L turned into minus its base-10 logarithm.

• O=C(N1CCc2cc(F)ccc21)C12CC3CC(CC(C3)C1)C2 = 5.62

Lab note: need pKi for O=C(N1CCCc2ccccc21)C12CC3CC(CC(C3)C1)C2 on Cannabinoid receptor 2 (Mus musculus, UniProt P47936), anyone have it?
5.37

Lab note: need pKi for CN1CCN(C(=O)C23CC4CC(CC(C4)C2)C3)c2ccccc21 on Cannabinoid receptor 2 (Mus musculus, UniProt P47936), anyone have it?
5.55

Lab note: need pKi for O=C(NC12CC3CC(CC(C3)C1)C2)N1Cc2ccccc2C1 on Cannabinoid receptor 2 (Mus musculus, UniProt P47936), anyone have it?
6.40

Lab note: need pKi for COC1CCN(C(=O)C23CC4CC(CC(C4)C2)C3)c2ccccc21 (configuration not stated) on Cannabinoid receptor 2 (Mus musculus, UniProt P47936), anyone have it?
5.28

Lab note: need pKi for O=C(N1CCc2ccc(C(F)(F)F)cc21)C12CC3CC(CC(C3)C1)C2 on Cannabinoid receptor 2 (Mus musculus, UniProt P47936), anyone have it?
5.55

Lab note: need pKi for CC1(C)CN(C(=O)C23CC4CC(CC(C4)C2)C3)c2ccccc21 on Cannabinoid receptor 2 (Mus musculus, UniProt P47936), anyone have it?
5.31

Lab note: need pKi for O=C(C1C2CC3CC(C2)CC1C3)N1CCc2ccccc21 (configuration not stated) on Cannabinoid receptor 2 (Mus musculus, UniProt P47936), anyone have it?
5.66

Lab note: need pKi for COCCOC1CCN(C(=O)C23CC4CC(CC(C4)C2)C3)c2ccccc21 (configuration not stated) on Cannabinoid receptor 2 (Mus musculus, UniProt P47936), anyone have it?
5.82

###

Measured logD, listed per entry for reference.
Test: Lipophilicity, log D of the compound
Assay type: physicochemical
Conditions: octanol/water
The reply should be a number, written without any unit.

* CN1CCN(C(=O)C23CC4CC(CC(C4)C2)C3)c2ccccc21 | 4.09
* COC1CCN(C(=O)C23CC4CC(CC(C4)C2)C3)c2ccccc21 (configuration not stated) | 3.79
* O=C(N1CCc2ccccc21)C12CC3CC(CC(O)(C3)C1)C2 | 2.77
* O=C(N1CCc2ccccc21)C12CC3CC(CC1C3)C2 | 3.7

Please look up its logD: CCOC1CCN(C(=O)C23CC4CC(CC(C4)C2)C3)c2ccccc21 (configuration not stated)
4.09

Please look up its logD: O=C(NC12CC3CC(CC(C3)C1)C2)N1Cc2ccccc2C1
4.26

Please look up its logD: COCCOC1CCN(C(=O)C23CC4CC(CC(C4)C2)C3)c2ccccc21 (configuration not stated)
3.82

###

Measured pEC50, listed per entry for reference.
Biological target: Cannabinoid receptor 2 (Homo sapiens, UniProt P34972, Q63R)
Sequence (P34972 whole entry Q63R): as the sequence (P34972 whole entry) above, with Q63R counted along it
Assay: Agonist activity at human CB2 receptor Q63R mutant
In plain terms, pEC50 is the concentration in mol/L turned into minus its base-10 logarithm.

// below: answered compounds
* O=C(N1CCc2ccc(C(F)(F)F)cc21)C12CC3CC(CC(C3)C1)C2 | 7.31
* O=C(N1CCc2ccccc21)C12CC3CC(CC(O)(C3)C1)C2 | 6.27
* O=C(NC12CC3CC(CC(C3)C1)C2)N1Cc2ccccc2C1 | 7.57
* O=C(C1C2CC3CC(C2)CC1C3)N1CCc2ccccc21 (stereo unspecified) | 7.96
* Cc1cccc2c1N(C(=O)C13CC4CC(CC(C4)C1)C3)CC2 | 7.09
* Cc1cccc2c1CCN2C(=O)C12CC3CC(CC(C3)C1)C2 | 7.96
* COC1CCN(C(=O)C23CC4CC(CC(C4)C2)C3)c2ccccc21 (stereo unspecified) | 7.11
* CN1CCN(C(=O)C23CC4CC(CC(C4)C2)C3)c2ccccc21 | 7.15

Please look up its pEC50: COCCOC1CCN(C(=O)C23CC4CC(CC(C4)C2)C3)c2ccccc21 (stereo unspecified)
7.62

Please look up its pEC50: O=C(N1CCCc2ccccc21)C12CC3CC(CC(C3)C1)C2
7.26

Please look up its pEC50: CC1(C)CN(C(=O)C23CC4CC(CC(C4)C2)C3)c2ccccc21
7.44

###

Measured EC50, listed per entry for reference.
Molecular target: Cannabinoid receptor 2 (Homo sapiens)
Assay: Agonist activity at human CB2 receptor by cAMP read-out assay
Type: functional

// below: answered compounds
- CCOC1CCN(C(=O)C23CC4CC(CC(C4)C2)C3)c2ccccc21 (stereo unspecified): 1.8 nM
- Cc1cccc2c1N(C(=O)C13CC4CC(CC(C4)C1)C3)CC2: 55 nM
- CN1CCN(C(=O)C23CC4CC(CC(C4)C2)C3)c2ccccc21: 29 nM
- CCOC(=O)c1ccccc1NC(=O)C12CC3CC(CC(C3)C1)C2: 15 nM
- O=C(C1C2CC3CC(C2)CC1C3)N1CCc2ccccc21 (stereo unspecified): 7 nM

Please look up its EC50: COC(=O)c1cccc(NC(=O)C23CC4CC(CC(C4)C2)C3)c1
> 10000 nM

Please look up its EC50: O=C(N1CCc2ccccc21)C12CC3CC(CC1C3)C2
22 nM

Please look up its EC50: COCCOC1CCN(C(=O)C23CC4CC(CC(C4)C2)C3)c2ccccc21 (stereo unspecified)
20 nM

Please look up its EC50: Cc1cccc2c1CCN2C(=O)C12CC3CC(CC(C3)C1)C2
4 nM

###

Target: Cannabinoid receptor 2 (Homo sapiens, UniProt P34972)
Experiment: Agonist activity at human CB2 receptor by beta-arrestin recruitment assay
parameter: EC50 (nM)
Quick note: give the figure in nM, leave out the unit.

• O=C(N1CCc2ccccc21)C12CC3CC(CC(C3)C1)C2 = 220

Please look up its EC50: CCOC(=O)c1ccccc1NC(=O)C12CC3CC(CC(C3)C1)C2
76

###

Molecular target: Cannabinoid receptor 2 (Homo sapiens)
Experiment: Binding affinity to human CB2 receptor
Measured pKi, listed per entry for reference.
In plain terms, pKi is the concentration in mol/L turned into minus its base-10 logarithm.

* O=C(N1Cc2ccccc2C1)C12CC3CC(CC(C3)C1)C2 | 6.30
* O=C(N1CCc2ccccc21)C12CC3CC(CC1C3)C2 | 6.30
* COCCOC1CCN(C(=O)C23CC4CC(CC(C4)C2)C3)c2ccccc21 (stereo not given) | 6.46
* O=C(C1C2CC3CC(C2)CC1C3)N1CCc2ccccc21 (stereo not given) | 6.49
* COC1CCN(C(=O)C23CC4CC(CC(C4)C2)C3)c2ccccc21 (stereo not given) | 6.11

Please look up its pKi: O=C(N1CCc2cc(F)ccc21)C12CC3CC(CC(C3)C1)C2
6.70
